Tested on: HOP-92 NSCLC
Assay: NCI tumour cell line growth inhibition, 48 h; in the data active = GI50 below about 0.43 µM; inactive = the rest
Outcomes: active, inactive

C=C(F)C(=O)N1CCN(c2nc(OC[C@@H]3CCCN3C)nc3c2CCN(c2cccc4cccc(Cl)c24)C3)C[C@@H]1CC#N :: inactive
C[As](C)SC1OC(CO)C(O)C1O (stereo not given) :: active
O=C(Nc1ccc(OS(=O)(=O)c2ccccc2)cc1)C12CC3CC(CC(C3)C1)C2 :: inactive
CCN1CCN(c2ccc(Nc3cc(N(C)C(=O)Nc4c(Cl)c(OC)cc(OC)c4Cl)ncn3)cc2)CC1 :: inactive
NC(=NCCCOc1ccc(Cl)cc1)Nc1ccc(C(F)(F)F)cc1 :: inactive

====

Test system: UO-31 renal
Assay: NCI tumour cell line growth inhibition, 48 h
Property label: TGI (µM)

C=CCNC1=C2C[C@@H](C)C[C@@H](OC)[C@H](OC(=O)CCCCN)[C@H](C)/C=C(\C)[C@@H](OC(N)=O)[C@H](OC)/C=C\C=C(/C)C(=O)NC(=CC1=O)C2=O :: 34.2
COc1cc(Nc2cn[nH]c2-c2ccc(Cl)cc2)cc(OC)c1OC :: 28.8

====

Reported TGI values are given for each entry in this list.
Tested on: SK-MEL-5 melanoma
Assay: NCI tumour cell line growth inhibition, 48 h
Property label: TGI (µM)

Cc1ccc(Cl)cc1Nc1nc(C(F)(F)F)ccc1C(=O)N1CCN(c2ccc(F)cc2)CC1 :: 24.3
CC/C(=C(/c1ccc(OCCN(C)C)cc1)c1ccc(OC(=O)CCCCC(=O)c2c(C)[nH]c(/C=C3\N=C(c4ccc[nH]4)C=C3OC)c2C)cc1)c1ccccc1 :: 3.11
CS(=O)(=O)Nc1ccc(N2Cc3cnc4ccc5[nH]ccc2c5c34)cc1 :: 29
CCOC(=O)/C=C/C(C(=O)/C=C/c1ccc(OC2CCCCO2)c(OC)c1)=C(O)\C=C\c1ccc(OC2CCCCO2)c(OC)c1 (configuration not stated) :: 16.5
C=CCNC1=C2C[C@@H](C)C[C@@H](OC)[C@H](OC(=O)CCCCN)[C@H](C)/C=C(\C)[C@@H](OC(N)=O)[C@H](OC)/C=C\C=C(/C)C(=O)NC(=CC1=O)C2=O :: 25.5
CC(=O)Nc1cc(C(=O)Nc2cc(C(=O)N3CC(CCl)c4c3cc(N)c3ccccc43)nn2C)nn1C (configuration not stated) :: 1.23
Clc1ccc2c(NCCCNc3nccc(Nc4ccc(Br)cc4)n3)ccnc2c1 :: 2.84
CCCCCCCCCCCCCCCCCCNc1ccn(C2OC(COP(=O)(O)OCC3OC(n4cc(C)c(=O)[nH]c4=O)CC3O)C(O)C2O)c(=O)n1 (configuration not stated) :: 28.1

====

Tested on: OVCAR-4 ovarian
Assay: NCI tumour cell line growth inhibition, 48 h
Property label: TGI

CC[N+](CC)(CCNCC(N)=O)CC(N)=O :: > 10 µM
NC(CCCCP(=O)(O)O)C(=O)O (configuration not stated) :: > 100 µM
O=S(=O)(c1ccccc1)n1c2cc3cccnc3nc2c2cccnc21 :: > 100 µM
COc1cc(Nc2cn[nH]c2-c2ccc(Cl)cc2)cc(OC)c1OC :: > 100 µM
O=C1CCCC/C(=C/c2ccccc2)N1 :: > 100 µM
O=C1N=c2ccccc2=C1c1c(O)[nH]c2ccccc12 :: 29.9 µM
NC(=O)C(N)Cc1ccc(O)cn1 (configuration not stated) :: > 100 µM

====

System: MOLT-4 leukemia
Assay: NCI tumour cell line growth inhibition, 48 h
# maps each entry to its TGI
Property label: TGI

O=C1NC(=Nc2ccccc2)S/C1=C\c1ccc2ncccc2c1 :: > 25 µM
CCCCc1c(OC)cc(O)c2c1C(=O)c1[nH]c(C(=O)O)c(O)c(=O)c1C2=O :: > 100 µM
COc1nc(C(=O)NNC(=O)c2nc(OC)c3ccccc3c2-c2ccccc2)c(-c2ccccc2)c2ccccc12 :: > 100 µM
C=C(F)C(=O)N1CCN(c2nc(OC[C@@H]3CCCN3C)nc3c2CCN(c2cccc4cccc(Cl)c24)C3)C[C@@H]1CC#N :: 2.71 µM
COc1ccc2c(c1)CCC1C2CC[C@@]2(C)C1CC1=CC(COC(C)=O)C3C(=O)c4ccccc4C(=O)C3C12 (some centres undefined) :: > 100 µM
Cc1ccc(NC(=O)c2c(C)nc(=O)n3c2N(/N=C/c2ccc(Cl)cc2)CC3)cc1 :: 82 µM
CNn1c(-c2ccccc2)n[nH]c1=O :: > 100 µM
c1ccc2sc(C3(N4CCCC4)CCCCCC3)cc2c1 :: 29.3 µM
CC(=O)OC1Oc2ccccc2-c2oc(=O)c(-c3cc(=O)oc4cc(O)ccc34)cc21 (centres undefined) :: 20.1 µM

====

# Lookup of reported TGI keyed by entry
Test system: MDA-N
Assay: NCI tumour cell line growth inhibition, 48 h
Property label: TGI (µM)

CC(C)(C)c1cc(C(P(=O)(c2ccccc2)c2ccccc2)P(=O)(c2ccccc2)c2ccccc2)cc(C(C)(C)C)c1O :: 3.93
O=c1c2ccccc2[se]n1-c1cccnc1 :: 52.9
CC(C)C1OC23CCCCC2C(C#N)(C#N)C1(C#N)C(=N)O3 (stereo unspecified) :: 32.7
O=Cc1ccc2c(c1)CC1(C2)Cc2ccc3c(c2C1)CCC3 (stereo unspecified) :: 4.85
CN(C)Cc1cc(C(=O)/C=C/c2ccc(Cl)cc2)cc(CN(C)C)c1O :: 25.3

====

System: DU-145 prostate
Assay: NCI tumour cell line growth inhibition, 48 h
TGI: recorded values
Property label: TGI

CC(=O)c1c2c(cc3c1CC1(Cc4ccccc4C1=O)C3)CCC2 (stereo not given) :: > 100 µM
COc1nc(C(=O)NNC(=O)c2nc(OC)c3ccccc3c2-c2ccccc2)c(-c2ccccc2)c2ccccc12 :: > 100 µM
C/C(=C\CCc1ccoc1)CC/C=C(\C)CCCC1=CC(=O)OC1 :: > 100 µM
Clc1coc2nc3ccccc3c(Nc3ccc4c(c3)OCO4)c12 :: 17.2 µM
CC(C)(C)C(=O)OCOP(=O)(OCOC(=O)C(C)(C)C)C1CCCN(O)C1=O (stereo not given) :: > 100 µM

====

System: SK-MEL-28 melanoma
Assay: NCI tumour cell line growth inhibition, 48 h
Property label: TGI

COc1nc(C(=O)NNC(=O)c2nc(OC)c3ccccc3c2-c2ccccc2)c(-c2ccccc2)c2ccccc12 :: > 100 µM
CN(c1ccc(Cl)cc1)S(=O)(=O)c1ccc([N+](=O)[O-])cc1 :: > 100 µM
O/N=C1/COC(C(F)(F)F)(C(F)(F)F)C1 :: > 100 µM
CSc1nc2c(nc(C)c(=O)n2C2OCC(OC(C)=O)C(OC(C)=O)C2OC(C)=O)c(=O)[nH]1 (centres undefined) :: > 100 µM
C=C1CC(c2ccc(OCCCN3C(=O)c4ccccc4C3=O)c(OC)c2)OC1=O (centres undefined) :: 9.34 µM
COC(=O)C(C(=O)C(=O)Nc1cccc(OC)c1)c1cnc2ccccc2n1 (centres undefined) :: > 100 µM
O=NN(CCCl)C(=O)NC1CCSc2ccccc21 (centres undefined) :: > 94.1 µM
O=C(Nc1nc2ncn(CCI)c2c(=O)[nH]1)c1ccccc1 :: > 100 µM
C=CCNC1=C2C[C@@H](C)C[C@@H](OC)[C@H](OC(=O)CCCCN)[C@H](C)/C=C(\C)[C@@H](OC(N)=O)[C@H](OC)/C=C\C=C(/C)C(=O)NC(=CC1=O)C2=O :: 36.9 µM

====

Test system: U251 CNS
Assay: NCI tumour cell line growth inhibition, 48 h
Property label: TGI (µM)

Nc1nc(Cl)c(N)c(NC23CC4CC(CC(C4)C2)C3)n1 :: 3.06
O=Cc1ccc2c(c1)CC1(C2)Cc2ccc3c(c2C1)CCC3 (stereo not given) :: 22.7
C=C(F)C(=O)N1CCN(c2nc(OC[C@@H]3CCCN3C)nc3c2CCN(c2cccc4cccc(Cl)c24)C3)C[C@@H]1CC#N :: 2.21
CC(C)(C)[SiH]12(OC(C(F)(F)F)(C(F)(F)F)c3ccccc31)OC(C(F)(F)F)(C(F)(F)F)c1ccccc12 :: 6.19

====

Test system: SF-268 CNS
Assay: NCI tumour cell line growth inhibition, 48 h
Property label: TGI

O=C(OC(=O)n1ccc2ccccc21)n1ccc2ccccc21 :: > 100 µM
C=C1CC(c2ccc(OCCCN3C(=O)c4ccccc4C3=O)c(OC)c2)OC1=O (centres undefined) :: 23 µM
O=C(O)/C=N\Nc1nc2ccccc2[nH]1 :: > 100 µM
Cc1ccc(/C=N/n2c(=O)[nH]c3ccccc3c2=O)cc1 :: > 100 µM
CC(C)(C)c1cc(C(P(=O)(c2ccccc2)c2ccccc2)P(=O)(c2ccccc2)c2ccccc2)cc(C(C)(C)C)c1O :: > 9.47 µM
COc1ccc(C(C)NNC(=O)c2ccncc2)c(OC)c1 (centres undefined) :: > 100 µM
COC(=O)c1cc2c(cc1O)[C@@H](NC(C)=O)CCc1cc(OC)c(OC)c(OC)c1-2 :: > 100 µM
O=c1c2ccccc2[se]n1-c1cccnc1 :: 70.6 µM
Cc1c2cccnc2c(C)c2c1c1cc(CO)ccc1n2C :: 15.1 µM
O=C(CCCn1ccnc1[N+](=O)[O-])NCCn1cncc1[N+](=O)[O-] :: > 100 µM
Ic1ccc(Nc2nc3nonc3nc2Nc2ccc(I)cc2)cc1 :: > 100 µM
O=C1OC(c2ccccc2)=N/C1=C/C=C/c1ccco1 :: > 100 µM
CC1CC(N)=Nc2ccccc2N1 (centres undefined) :: > 100 µM
CS(=O)(=O)N/N=C/CN1C(=O)c2ccccc2C1=O :: > 100 µM
O=C(O/N=C1/CCCC/C1=C\c1ccccc1)c1ccccc1 :: > 100 µM
O=[N+]([O-])c1cc2oc(COc3ccccc3)nc2cc1Cl :: > 100 µM
CC(C)=C[C@@H]1C[C@H](C)[C@H]2CC[C@H](C)C3=C2[C@](O)(OC3=O)[C@]1(C)O :: > 100 µM
CN(c1ccc(Cl)cc1)S(=O)(=O)c1ccc([N+](=O)[O-])cc1 :: > 100 µM
CC1=Nc2ccccc2C1C(Cc1ccccc1N)c1c(C)[nH]c2ccccc12 (centres undefined) :: 21.5 µM
COc1ncnc(C2CC2)c1-c1ncc2cnn(Cc3ccc(-c4nc(C(F)(F)F)cn4C(C)C)cc3)c2n1 :: 80.9 µM
CCN1CCN(c2ccc(Nc3cc(N(C)C(=O)Nc4c(Cl)c(OC)cc(OC)c4Cl)ncn3)cc2)CC1 :: 28 µM
CC(C)C1OC23CCCCC2C(C#N)(C#N)C1(C#N)C(=N)O3 (centres undefined) :: 46.6 µM
O=[N+]([O-])c1nccn1CC(O)c1ccc(F)cc1 (centres undefined) :: > 100 µM
CC1=C(C#N)C(C#N)(C#N)C(NN(C)C)C1 (centres undefined) :: 78.7 µM
